- System: HCC-15
- Protocol details: relative viability (nuclei count vs DMSO), 5 days (fraction); higher = more cells survive
- Test settings: first compound 0.8 µM
Hi there, I'd appreciate the recorded relative viability for every entry that follows.
Numbers only.

Guide cases for relative viability, answers given:
Compound	Result
Nc1cccc2c1CN(C1CCC(=O)NC1=O)C2=O (stereo not drawn) [Lenalidomide] + CC(=O)Nc1cccc(-n2c(=O)n(C3CC3)c(=O)c3c(Nc4ccc(I)cc4F)n(C)c(=O)c(C)c32)c1 [Trametinib] (partner 0.02 µM)	0.427
Nc1cccc2c1CN(C1CCC(=O)NC1=O)C2=O (stereo not drawn) [Lenalidomide] + COc1cc2c(Oc3ccc(NC(=O)C4(C(=O)Nc5ccc(F)cc5)CC4)cc3F)ccnc2cc1OCCCN1CCOCC1 [Foretinib] (partner 0.25 µM)	1.04

Please look at the following compound next.
*Q* Item Nc1cccc2c1CN(C1CCC(=O)NC1=O)C2=O (stereo not drawn) [Lenalidomide] + O=C(c1cc(Cc2n[nH]c(=O)c3ccccc23)ccc1F)N1CCN(C(=O)C2CC2)CC1 [Olaparib] (partner 8 µM) has what recorded relative viability?
*A* 0.728
